- Measurement protocol: Selectivity index, ratio of IC50 for rat L6 cells to IC50 for chloroquine-resistant Plasmodium falciparum K1
- Assay type: toxicity, cell-based
- Measurement context: read-out: Selectivity Index
Measurement kind: selectivity ratio

Give me measured selectivity ratio, please, for this compound: Nc1c2c(nc3ccccc13)CC1C=C(c3ccccc3)CC2C1 (stereo unspecified)
2.1

###

- Test system: Plasmodium falciparum
- Measurement protocol: Antiplasmodial activity against chloroquine-resistant Plasmodium falciparum K1
- Format: functional, organism-based
Measurement kind: pIC50
Interpret pIC50 as the negative base-10 log of the concentration measured in mol/L.

Give me measured pIC50, please, for this molecule: Nc1c2c(nc3ccccc13)CC1C=C(c3ccccc3)CC2C1 (stereo unspecified)
5.15

Reference for the values: ChEMBL document CHEMBL1681701
